# Tested on: Klebsiella aerogenes
# PROCEDURE_TEXT: Minimum inhibitory concentration against Klebsiella aerogenes X5L (inoculum, 10e4 cfu per spot)
# Assay type: functional
Response field class: enum, chosen by comparing MIC against 1 (below 20 µg/mL), 2 (20 µg/mL to below 100 µg/mL), 3 (100 µg/mL or more)

- COMPOUND: "CC(=O)OCC1=C(C(=O)OC(c2ccccc2)c2ccccc2)N2C(=O)[C@@H](Nc3nc4c(N)cccc4[nH]3)C2SC1 (some centres undefined)"
  CLASS_ASSIGNMENT: 3
- COMPOUND: "CC(=O)Nc1ccc2[nH]c(N[C@@H]3C(=O)N4C(C(=O)OC(C)(C)C)=C(COC(C)=O)CSC34)nc2c1 (some centres undefined)"
  CLASS_ASSIGNMENT: 3
- COMPOUND: "CC1=C(C(=O)OC(C)(C)C)N2C(=O)[C@@H](Nc3nc4ccccc4n3CC(=O)OC(C)(C)C)C2SC1 (some centres undefined)"
  CLASS_ASSIGNMENT: 3
- COMPOUND: "CC1=C(C(=O)OC(c2ccccc2)c2ccccc2)N2C(=O)[C@@H](NC3=NC(C(N)=O)CN3)C2SC1 (some centres undefined)"
  CLASS_ASSIGNMENT: 1
- COMPOUND: "CC1=C(C(=O)OC(c2ccccc2)c2ccccc2)N2C(=O)[C@@H](NC3=NCCN3C)C2SC1 (some centres undefined)"
  CLASS_ASSIGNMENT: 3
- COMPOUND: "CC1=C(C(=O)OC(c2ccccc2)c2ccccc2)N2C(=O)[C@@H](NC3=NCC(C)N3)C2SC1 (some centres undefined)"
  CLASS_ASSIGNMENT: 2

**Query** For CC(=O)OCC1=C(C(=O)OC(C)(C)C)N2C(=O)[C@@H](Nc3nc4cc([N+](=O)[O-])ccc4[nH]3)C2SC1 (some centres undefined) , which MIC bin applies?
**Result** 3

---

# System: Escherichia coli
# PROCEDURE_TEXT: Minimum inhibitory concentration against Escherichia coli TEM X3 (inoculum, 10e4 cfu per spot)(TEM I type lactamase producer)
PARAMETER: MIC (µg/mL)
One number for each entry, in µg/mL.

- MOLECULE: "CC(=O)OCC1=C(C(=O)OC(c2ccccc2)c2ccccc2)N2C(=O)[C@@H](Nc3nc4c(C)cccc4[nH]3)C2SC1 (some centres undefined)"
  PARAMETER: "MIC"
  OBSERVED_MEASUREMENT: 32

**Query** Return reported MIC; argument: CC1=C(C(=O)OC(c2ccccc2)c2ccccc2)N2C(=O)[C@@H](NC3=NC(C(N)=O)CN3)C2SC1 (some centres undefined)
**Result** 8

---

# System: Proteus mirabilis
# PROCEDURE_TEXT: Minimum inhibitory concentration against Proteus mirabilis A18 (inoculum, 10e5 cfu per spot)
# Type: functional
Give measured MIC for each item. Keep answers brief.
Answers are plain numbers, in µg/mL.

Look over these answered cases.
- COMPOUND: "CC(=O)OCC1=C(C(=O)OC(c2ccccc2)c2ccccc2)N2C(=O)[C@@H](Nc3nc4cc(O)ccc4[nH]3)C2SC1 (some centres not stated)"
  PARAMETER: "MIC"
  OBSERVED_MEASUREMENT: 0.5
- COMPOUND: "CC(=O)OCC1=C(C(=O)OC(C)(C)C)N2C(=O)[C@@H](Nc3nc4cc([N+](=O)[O-])ccc4[nH]3)C2SC1 (some centres not stated)"
  PARAMETER: "MIC"
  OBSERVED_MEASUREMENT: 40
- COMPOUND: "CC1=C(C(=O)OC(c2ccccc2)c2ccccc2)N2C(=O)[C@@H](NC3=NCCN3)C2SC1 (some centres not stated)"
  PARAMETER: "MIC"
  OBSERVED_MEASUREMENT: 256
- COMPOUND: "CO/N=C(\\C(=O)N[C@@H]1C(=O)N2C(C(=O)O)=C(COC(C)=O)CS[C@H]12)c1csc(N)n1"
  PARAMETER: "MIC"
  OBSERVED_MEASUREMENT: 0.06
- COMPOUND: "CC(=O)OCC1=C(C(=O)OC(C)(C)C)N2C(=O)[C@@H](Nc3nc4cc(N)ccc4[nH]3)C2SC1 (some centres not stated)"
  PARAMETER: "MIC"
  OBSERVED_MEASUREMENT: 32
- COMPOUND: "CC(=O)OCC1=C(C(=O)OC(c2ccccc2)c2ccccc2)N2C(=O)[C@@H](Nc3nc4cc(CC#N)ccc4[nH]3)C2SC1 (some centres not stated)"
  PARAMETER: "MIC"
  OBSERVED_MEASUREMENT: 64
- COMPOUND: "Cc1nnc(SCC2=C(C(=O)OC(c3ccccc3)c3ccccc3)N3C(=O)[C@@H](Nc4nc5ccccc5[nH]4)C3SC2)s1 (some centres not stated)"
  PARAMETER: "MIC"
  OBSERVED_MEASUREMENT: 4

// below: MIC requested for another compound
**Query** Return reported MIC; argument: CC(=O)OCC1=C(C(=O)OC(c2ccccc2)c2ccccc2)N2C(=O)[C@@H](Nc3nc4cc(CO)ccc4[nH]3)C2SC1 (some centres not stated)
**Result** 8

---

# Test system: Klebsiella aerogenes
# PROCEDURE_TEXT: Minimum inhibitory concentration against Klebsiella aerogenes X5L (inoculum, 10e4 cfu per spot)
# Format: functional
PARAMETER: MIC (mg/L)
Numbers only, in mg/L.

- COMPOUND: "CC(=O)OCC1=C(C(=O)OC(c2ccccc2)c2ccccc2)N2C(=O)[C@@H](Nc3nc4cscc4[nH]3)C2SC1 (stereo partly drawn)"
  MIC, mg/L: 128
- COMPOUND: "CC1=C(C(=O)OC(c2ccccc2)c2ccccc2)N2C(=O)[C@@H](NC3=NC(c4ccc(C#N)cc4)CN3)C2SC1 (stereo partly drawn)"
  MIC, mg/L: 8
- COMPOUND: "CC(=O)OCC1=C(C(=O)OC(c2ccccc2)c2ccccc2)N2C(=O)[C@@H](Nc3nc4cc(CN)ccc4[nH]3)C2SC1 (stereo partly drawn)"
  MIC, mg/L: 32

Dear reader, for each entry below, please note its MIC.
1. Cc1nnc(SCC2=C(C(=O)OC(C)(C)C)N3C(=O)[C@@H](NC4=NCCN4)C3SC2)s1 (stereo partly drawn)
2. CC1=C(C(=O)OC(c2ccccc2)c2ccccc2)N2C(=O)[C@@H](NC3=NC(c4ccccc4)CN3)C2SC1 (stereo partly drawn)
3. CC(=O)OCC1=C(C(=O)OC(c2ccccc2)c2ccccc2)N2C(=O)[C@@H](NC3=NCCN3)C2SC1 (stereo partly drawn)
4. CO/N=C(\C(=O)N[C@@H]1C(=O)N2C(C(=O)O)=C(COC(C)=O)CS[C@H]12)c1csc(N)n1

**Result**
16
8
64
4

---

# Test system: Staphylococcus aureus
# PROCEDURE_TEXT: Minimum inhibitory concentration against Staphylococcus aureus A4 (inoculum, 10e5 cfu per spot)
# Format: functional
PARAMETER: MIC

Dear reader, for each entry below, please note its MIC.
1. Cn1nnnc1SCC1=C(C(=O)OC(c2ccccc2)c2ccccc2)N2C(=O)[C@@H](Nc3nc4ccccc4[nH]3)C2SC1 (stereo partly drawn)
2. CO[C@@]1(NC2=NCCN2)C(=O)N2C(C(=O)OC(c3ccccc3)c3ccccc3)=C(C)CSC21 (stereo partly drawn)

**Result**
128 µg/mL
> 256 µg/mL

Dear reader, for each entry below, please note its MIC.
1. CC(=O)OCC1=C(C(=O)OC(c2ccccc2)c2ccccc2)N2C(=O)[C@@H](NC3=NCCN3)C2SC1 (stereo partly drawn)
2. CC(=O)OCC1=C(C(=O)OC(c2ccccc2)c2ccccc2)N2C(=O)[C@@H](Nc3nc4cc(O)ccc4[nH]3)C2SC1 (stereo partly drawn)
3. CO[C@@]1(Nc2nc3ccccc3[nH]2)C(=O)N2C(C(=O)OC(c3ccccc3)c3ccccc3)=C(COC(C)=O)CSC21 (stereo partly drawn)
4. CC1=C(C(=O)OC(c2ccccc2)c2ccccc2)N2C(=O)[C@@H](NC3=NC(c4ccccc4)CN3)C2SC1 (stereo partly drawn)

**Result**
["> 256 µg/mL", "16 µg/mL", "> 256 µg/mL", "> 256 µg/mL"]

Dear reader, for each entry below, please note its MIC.
1. CC(=O)Nc1ccc2[nH]c(N[C@@H]3C(=O)N4C(C(=O)OC(C)(C)C)=C(COC(C)=O)CSC34)nc2c1 (stereo partly drawn)
2. CC1=C(C(=O)OC(c2ccccc2)c2ccccc2)N2C(=O)[C@@H](NC3=NC(c4ccc(O)c(O)c4)CN3)C2SC1 (stereo partly drawn)

**Result**
["256 µg/mL", "> 256 µg/mL"]

---

# System: Staphylococcus aureus
# PROCEDURE_TEXT: Minimum inhibitory concentration against Staphylococcus aureus A4 (inoculum, 10e5 cfu per spot)
# Assay type: functional
Give measured MIC for each item. Keep answers brief.

Dear reader, for each entry below, please note its MIC.
1. CC(=O)OCC1=C(C(=O)OC(c2ccccc2)c2ccccc2)N2C(=O)[C@@H](Nc3nc4c(N)cccc4[nH]3)C2SC1 (stereo not given in full)
2. CC(=O)OCC1=C(C(=O)OC(c2ccccc2)c2ccccc2)N2C(=O)[C@@H](Nc3nc4ccccc4[nH]3)C2SC1 (stereo not given in full)

**Result**
> 200 µg/mL
8 µg/mL
